# experiment: Bioanalysis of brain and plasma samples (exposure, UPLC-MS/MS)
# Assay type: in vivo
# test.context: male, Sprague Dawley, po; brain, rat, 10 mg/kg p.o., 3 hours post dose; read-out: Exp
readout.name: concentration at 3 h (ng/g)

P = COc1ccc(C(=O)Nc2ccc(F)c([C@@]3(C(F)F)N=C(N)CCC3(F)F)c2)nc1
Q = COc1cnc(C(=O)Nc2ccc(F)c([C@@]3(C(F)F)N=C(N)CCC3(F)F)c2)cn1
[in] Field: lower recorded concentration at 3 h (choose P or Q ) Provide the label of your selected option as the answer.
[out] P
(P: 187 ng/g, Q: 511 ng/g)

====

# experiment: Bioanalysis of brain and plasma samples (exposure, UPLC-MS/MS)
# Format: in vivo
# test.context: male, Sprague Dawley, po; plasma, rat, 10 mg/kg p.o., 3 hours post dose; read-out: Exp
readout.name: concentration at 3 h (ng/g)

a = COc1ccc(C(=O)Nc2ccc(F)c([C@@]3(C(F)F)N=C(N)CCC3(F)F)c2)nc1 [Compound 5]
b = COc1cnc(C(=O)Nc2ccc(F)c([C@@]3(C(F)F)N=C(N)CCC3(F)F)c2)cn1 [Compound 3]
[in] Which value of concentration at 3 h is numerically greater: that of a or that of b ? Answer by quoting the chosen item's label.
[out] b
(b: 1680 ng/g, a: 660 ng/g)

====

# Tested on: P-gp (MDR1)
# experiment: MDCK-MDR1 assay (permeability/efflux)
# Assay type: in vitro ADME
# test.context: dog, Papp BA/Papp AB, 60-minute incubation, Pgp substrate when ≧2
readout.name: efflux ratio at 60 min, 0.5 μM

[in] Name the recorded efflux ratio at 60 min, 0.5 μM for NC1=N[C@@](c2cc(NC(=O)c3cnc(C(F)F)cn3)ccc2F)(C(F)F)C(F)(F)CC1 .
[out] 1.36

I = NC1=N[C@@](c2cc(NC(=O)c3ccc(Cl)cn3)ccc2F)(C(F)F)C(F)(F)CC1
II = N#Cc1ccc(C(=O)Nc2ccc(F)c([C@@]3(C(F)F)N=C(N)CCC3(F)F)c2)nc1
[in] Which entry has a larger number for efflux ratio at 60 min, 0.5 μM, I or II ? Please reply using the label of the selected record.
[out] II
(II: 2.43, I: 1.16)

a = NC1=N[C@@](c2cc(NC(=O)c3ccc(F)cn3)ccc2F)(C(F)F)C(F)(F)CC1
b = COc1ccc(C(=O)Nc2ccc(F)c([C@@]3(C(F)F)N=C(N)CCC3(F)F)c2)nc1
[in] Determine, for a and b , which has the greater value of efflux ratio at 60 min, 0.5 μM. Lab note: record the label of whichever item you select.
[out] a
(a: 1.75, b: 0.99)

====

# system.tested: human BACE1 (Homo sapiens (Human))
# Sequence (P56817 46-501): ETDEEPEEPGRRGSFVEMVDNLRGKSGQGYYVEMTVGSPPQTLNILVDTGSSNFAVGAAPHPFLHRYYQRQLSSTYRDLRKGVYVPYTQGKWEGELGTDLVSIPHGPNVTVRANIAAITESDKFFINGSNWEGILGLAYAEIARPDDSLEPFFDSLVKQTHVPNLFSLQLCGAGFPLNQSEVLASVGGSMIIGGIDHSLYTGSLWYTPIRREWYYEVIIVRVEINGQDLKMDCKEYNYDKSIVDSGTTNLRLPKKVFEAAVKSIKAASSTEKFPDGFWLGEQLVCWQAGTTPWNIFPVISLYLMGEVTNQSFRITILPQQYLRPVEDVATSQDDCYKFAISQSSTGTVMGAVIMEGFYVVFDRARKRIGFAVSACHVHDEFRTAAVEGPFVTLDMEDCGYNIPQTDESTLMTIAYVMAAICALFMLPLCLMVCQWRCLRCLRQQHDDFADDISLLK
# experiment: BACE1 binding assay (SPA-based radioligand binding)
# test.context: pH 4.5, Ki calculated from IC50
readout.name: Ki (nM)

[in] Look up Ki with human BACE1 (Homo sapiens (Human)) for this compound: NC1=N[C@@](c2cc(NC(=O)c3ccc(F)cn3)ccc2F)(C(F)F)C(F)(F)CC1 [Compound 2]
[out] 23

[in] Test system human BACE1 (Homo sapiens (Human)); read-out Ki; what value for COc1ccc(C(=O)Nc2ccc(F)c([C@@]3(C(F)F)N=C(N)CCC3(F)F)c2)nc1 [Compound 5] ?
[out] 6.7

[in] What is its Ki for human BACE1 (Homo sapiens (Human))? Entry: Cc1nc(C(=O)Nc2ccc(F)c([C@@]3(C(F)F)N=C(N)CCC3(F)F)c2)co1 [Compound 4]
[out] 20

a = COc1cnc(C(=O)Nc2ccc(F)c([C@@]3(C(F)F)N=C(N)CCC3(F)F)c2)cn1 [Compound 3]
b = COc1cnc(C(=O)Nc2ccc(F)c([C@@]3(C(F)F)N=C(N)CCC3(F)F)c2)c(C)n1 [Compound 10]
[in] Select the item with the higher value of Ki from the options a and b listed. When you have decided, please share the label of that item.
[out] b

a = Cc1csc(C(=O)Nc2ccc(F)c([C@@]3(C(F)F)N=C(N)CCC3(F)F)c2)n1 [Compound 8]
b = N#Cc1ccc(C(=O)Nc2ccc(F)c([C@@]3(C(F)F)N=C(N)CCC3(F)F)c2)nc1 [Compound 7]
[in] Returns: the label, a or b , whose recorded Ki is the lower number. Lab note: record the label of whichever item you select.
[out] b
(b: 7.4 nM, a: 71 nM)
